Measured values drawn from patent US10457655B2 for this set.

Molecular target: FASN enzyme (Homo sapiens, UniProt P49327)
Sequence (P49327 whole entry): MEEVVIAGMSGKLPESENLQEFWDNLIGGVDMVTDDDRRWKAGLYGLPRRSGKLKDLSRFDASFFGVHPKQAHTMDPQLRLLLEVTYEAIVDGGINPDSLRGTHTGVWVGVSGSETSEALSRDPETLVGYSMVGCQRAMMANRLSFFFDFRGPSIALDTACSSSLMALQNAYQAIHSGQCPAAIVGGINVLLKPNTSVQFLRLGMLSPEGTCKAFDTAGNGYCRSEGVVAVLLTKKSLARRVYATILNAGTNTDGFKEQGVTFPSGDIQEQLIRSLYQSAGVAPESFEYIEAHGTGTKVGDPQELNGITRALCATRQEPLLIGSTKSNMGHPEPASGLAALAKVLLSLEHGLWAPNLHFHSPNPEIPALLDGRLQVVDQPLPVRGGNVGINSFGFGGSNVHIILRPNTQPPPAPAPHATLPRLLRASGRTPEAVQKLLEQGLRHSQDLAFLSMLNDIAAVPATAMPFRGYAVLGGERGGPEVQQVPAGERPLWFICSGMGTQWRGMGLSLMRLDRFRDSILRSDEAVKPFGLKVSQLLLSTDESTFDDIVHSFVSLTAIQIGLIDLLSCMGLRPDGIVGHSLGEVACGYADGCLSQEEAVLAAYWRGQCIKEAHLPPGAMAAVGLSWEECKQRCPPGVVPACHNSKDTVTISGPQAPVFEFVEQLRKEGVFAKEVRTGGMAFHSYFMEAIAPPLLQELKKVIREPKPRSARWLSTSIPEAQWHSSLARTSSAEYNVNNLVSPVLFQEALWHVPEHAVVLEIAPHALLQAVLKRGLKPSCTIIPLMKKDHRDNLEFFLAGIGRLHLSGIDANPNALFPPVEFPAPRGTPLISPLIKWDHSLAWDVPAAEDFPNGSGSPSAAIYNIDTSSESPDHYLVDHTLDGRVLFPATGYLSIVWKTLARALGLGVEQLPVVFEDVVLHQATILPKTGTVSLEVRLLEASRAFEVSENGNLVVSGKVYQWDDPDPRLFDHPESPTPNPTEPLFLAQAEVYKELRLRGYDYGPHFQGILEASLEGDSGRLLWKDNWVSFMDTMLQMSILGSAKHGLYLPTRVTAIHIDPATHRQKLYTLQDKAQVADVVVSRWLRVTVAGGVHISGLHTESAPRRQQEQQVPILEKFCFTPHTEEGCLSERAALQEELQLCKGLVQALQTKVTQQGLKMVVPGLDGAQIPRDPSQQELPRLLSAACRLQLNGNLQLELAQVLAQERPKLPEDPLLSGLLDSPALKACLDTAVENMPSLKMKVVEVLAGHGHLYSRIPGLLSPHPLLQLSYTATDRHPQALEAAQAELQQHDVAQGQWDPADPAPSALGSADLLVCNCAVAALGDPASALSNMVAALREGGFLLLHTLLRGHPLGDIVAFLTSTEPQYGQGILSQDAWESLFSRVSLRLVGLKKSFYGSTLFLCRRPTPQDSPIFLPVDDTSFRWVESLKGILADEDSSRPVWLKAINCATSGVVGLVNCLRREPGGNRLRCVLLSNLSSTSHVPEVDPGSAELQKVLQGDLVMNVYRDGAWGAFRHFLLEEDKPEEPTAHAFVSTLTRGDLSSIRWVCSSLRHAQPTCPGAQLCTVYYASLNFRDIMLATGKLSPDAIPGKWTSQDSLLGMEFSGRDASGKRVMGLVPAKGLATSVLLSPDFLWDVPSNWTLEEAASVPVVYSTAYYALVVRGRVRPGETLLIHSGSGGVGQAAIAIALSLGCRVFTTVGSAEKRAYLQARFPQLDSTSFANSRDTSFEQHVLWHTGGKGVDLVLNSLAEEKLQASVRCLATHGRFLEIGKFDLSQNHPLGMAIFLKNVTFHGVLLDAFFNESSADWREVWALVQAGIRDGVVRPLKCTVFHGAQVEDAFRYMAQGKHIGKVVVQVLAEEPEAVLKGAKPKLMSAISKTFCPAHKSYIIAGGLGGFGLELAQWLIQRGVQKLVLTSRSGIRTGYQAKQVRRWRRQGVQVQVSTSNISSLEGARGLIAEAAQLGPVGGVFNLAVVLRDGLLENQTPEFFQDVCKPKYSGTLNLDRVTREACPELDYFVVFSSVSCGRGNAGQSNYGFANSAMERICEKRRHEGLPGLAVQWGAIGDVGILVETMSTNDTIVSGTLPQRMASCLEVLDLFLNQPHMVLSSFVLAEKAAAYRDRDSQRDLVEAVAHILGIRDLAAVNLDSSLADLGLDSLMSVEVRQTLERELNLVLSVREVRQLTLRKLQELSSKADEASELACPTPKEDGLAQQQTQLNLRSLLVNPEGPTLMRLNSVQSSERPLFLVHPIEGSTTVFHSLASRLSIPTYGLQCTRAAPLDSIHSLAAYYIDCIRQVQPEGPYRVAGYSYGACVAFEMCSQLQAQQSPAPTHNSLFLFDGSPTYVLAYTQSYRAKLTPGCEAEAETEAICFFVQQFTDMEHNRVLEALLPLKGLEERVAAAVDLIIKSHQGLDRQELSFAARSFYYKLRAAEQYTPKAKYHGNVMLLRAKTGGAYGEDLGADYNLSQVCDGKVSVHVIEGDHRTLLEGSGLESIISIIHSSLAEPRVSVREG
Assay: Enzymatic Assay for FASN Inhibitors
Type: biochemical
pIC50: −log10 of the molar value.
assay_readout: pIC50

>  <chemical_string>
Cn1cnc2cc(-c3ccc(C(=O)N4CCN(C(=O)C5(N)CCC5)CC4)cc3)ccc21

>  <target_entity>
FASN enzyme (Homo sapiens, UniProt P49327)

>  <assay_readout>
pIC50

>  <measurement>
> 6.30

$$$$
>  <chemical_string>
C[C@H]1CN(C(=O)C2(O)CC2)CCN1C(=O)c1ccc(-c2nc3ccc(F)cc3o2)cc1

>  <target_entity>
FASN enzyme (Homo sapiens, UniProt P49327)

>  <assay_readout>
pIC50

>  <measurement>
> 6.30

$$$$
>  <chemical_string>
Cn1ccc2cc(-c3ccc(C(=O)N4CCN(C(=O)C5(O)CC5)CC4)nc3)ccc21

>  <target_entity>
FASN enzyme (Homo sapiens, UniProt P49327)

>  <assay_readout>
pIC50

>  <measurement>
> 6.30

$$$$
>  <chemical_string>
CS(=O)(=O)Nc1cccc(-c2ccc(C(=O)N3CCN(C(=O)C4(O)CC4)CC3)cc2)c1

>  <target_entity>
FASN enzyme (Homo sapiens, UniProt P49327)

>  <assay_readout>
pIC50

>  <measurement>
> 6.30

$$$$
>  <chemical_string>
O=C(c1ccc(-c2ccc(F)cc2Cl)cc1)N1CCN(C(=O)C2(O)CC2)CC1

>  <target_entity>
FASN enzyme (Homo sapiens, UniProt P49327)

>  <assay_readout>
pIC50

>  <measurement>
> 6.30

$$$$

Batch request: pIC50 per item, same order as input.
1. Nc1nc(-c2cccc(-c3ccc(C(=O)N4CCN(C(=O)C5(O)CC5)CC4)cc3)c2)cs1
2. O=C(c1ccc(-c2cccc(S(=O)(=O)C3CC3)c2)c(Cl)c1)N1CCN(C(=O)C2(O)CC2)CC1

1: > 6.30; 2: > 6.30

Please give pIC50, item by item, for the list that follows.
1. O=C(c1ccc(-c2cccc3ocnc23)cc1)N1CCN(C(=O)C2(O)CC2)CC1
2. Nc1noc2cc(-c3ccc(C(=O)N4CCN(C(=O)C5(O)CC5)CC4)cc3)ccc12
3. Cn1cc2ccc(-c3ccc(C(=O)N4CCN(C(=O)C5(O)CC5)CC4)cc3Cl)cc2n1
4. COc1ccc2cc(-c3ccc(C(=O)N4CCN(C(=O)C5(O)CC5)CC4)cc3)ccc2n1
5. O=C(Nc1cccc(-c2ccc(C(=O)N3CCN(C(=O)C4(O)CC4)CC3)cc2)c1)C1CC(F)(F)C1
6. O=C(c1ccc(-c2cnc3ccccc3c2)cc1)N1CCN(C(=O)C2(O)CC2)CC1

1. > 6.30
2. > 6.30
3. > 6.30
4. > 6.30
5. > 6.30
6. > 6.30

Dear colleague, could you please provide pIC50 for the compounds listed below?
1. C[C@H]1CN(C(=O)c2ccc(-c3ccc4c(c3)ncn4C)cc2F)CCN1C(=O)C1(O)CC1
2. Cn1nnc2cc(-c3ccc(C(=O)N4CCN(C(=O)C5(O)CC5)CC4)cc3)c(F)cc21
3. C[C@H]1CN(C(=O)c2ccc(-c3ccc4cnn(C)c4c3)cc2)CCN1C(=O)C1(O)CC1
4. O=C(c1ccc(-c2ccc3n[nH]nc3c2)cc1)N1CCN(C(=O)C2(O)CC2)CC1
5. O=C(c1ccc(-c2cc(F)c3[nH]ccc3c2)cc1F)N1CCN(C(=O)C2(O)CC2)CC1

> 6.30
> 6.30
> 6.30
> 6.30
> 6.30

What the record says about O=C(c1ccc(-c2ccc3ncccc3c2)cc1F)N1CCN(C(=O)C2(O)CC2)CC1 : pIC50 is > 6.30
